FYI, the data here is from ChEMBL document CHEMBL4052722.

Entries and their log Ka values follow.
Organism: Bos taurus
Experiment: Displacement of ethidium bromide from calf thymus DNA by fluorescence binding assay
Kindly provide the number alone.

Examples with their reported log Ka follow.
{"structure.smiles.string": "CCN(CC)CCCOC(=O)CCCn1c2ccccc2c2nc3ccccc3nc21", "log Ka": 5.29}
{"structure.smiles.string": "CN(C)CCCNC(=O)CCCN1C(=O)c2cccc3cccc(c23)C1=O", "log Ka": 5.95}
{"structure.smiles.string": "CCN(CC)CCN1C(=O)/C(=N\\NC(=O)CCN2CCOCC2)c2ccccc21", "log Ka": 6.08}

-- ask I am curious: what log Ka value has been reported for O=C(CN1CCCC1)NN1C(=O)c2cccc3cccc(c23)C1=O ?
-- reply 5.41

-- ask Consider the compound shown here: O=C(Cn1c2ccccc2c2nc3ccccc3nc21)NCCN1CCNCC1 What is its recorded log Ka?
-- reply 5.72

-- ask Param item = CCCN(CCC)CCn1c2ccccc2c2nc3ccccc3nc21 ; retrieve measured log Ka.
-- reply 6.09
